Target: stromelysin (Homo sapiens, UniProt P08254)
Construct: made in house; host or cells: E. coli
Sequence (P08254 100-273 limits assumed): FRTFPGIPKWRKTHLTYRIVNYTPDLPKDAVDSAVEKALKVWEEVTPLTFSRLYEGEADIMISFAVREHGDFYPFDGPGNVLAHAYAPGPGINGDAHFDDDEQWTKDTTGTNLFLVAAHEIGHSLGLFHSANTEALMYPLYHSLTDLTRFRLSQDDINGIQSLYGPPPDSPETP
Experiment: Determination of stromelysin inhibition (cleavage of thiopeptide ester substrate, DTNB readout)
Format: biochemical
Conditions: @ 100 μM
Listed here: items and their measured inhibition at 100 µM.
Report the figure along with its unit, number first.

These solved cases illustrate the format of a correct answer.
>  <compound>
O=C(Cc1ccc(-c2ccccc2)cc1)NO [Example 33, 2-(4-biphenyl)ethanohydroxamic acid]

>  <inhibition at 100 µM>
14%

$$$$
>  <compound>
O=C(CCCCOc1ccc(-c2ccc(F)cc2)cc1)NO [Example 39]

>  <inhibition at 100 µM>
47%

$$$$
>  <compound>
O=C(CCCOc1ccc(-c2ccccc2)cc1O)NO [Example 40]

>  <inhibition at 100 µM>
39%

$$$$

[ask] Provide only the value of recorded inhibition at 100 µM for O=C(CCCCOc1cccc(-c2ccc(F)cc2)c1)NO [Example 12]
[reply] 20%

[ask] Provide only the value of recorded inhibition at 100 µM for O=C(CCCOc1cccc(-c2ccccc2)c1)NO [Example 2, 4-(3-phenylphenoxy)butanohydroxamic acid]
[reply] 5%

[ask] Provide only the value of recorded inhibition at 100 µM for O=C(CCCCCCOc1ccc(-c2ccccc2)cc1)NO [Example 10]
[reply] 45%

[ask] Provide only the value of recorded inhibition at 100 µM for N#Cc1cccc(-c2cccc(OCCCCC(=O)NO)c2)c1 [Example 13]
[reply] 24%

[ask] Provide only the value of recorded inhibition at 100 µM for O=C(CCCOc1ccc(-c2ccc(Cl)cc2)cc1)NO [Example 7]
[reply] 47%

[ask] Provide only the value of recorded inhibition at 100 µM for O=C(CCCOc1cc(-c2ccccc2)ccc1O)NO [Example 41]
[reply] 36%

---

Target: UniProtKB P08254
Experiment: Determination of stromelysin inhibition (cleavage of thiopeptide ester substrate, DTNB readout)
Details: recombinant truncated human stromelysin, pH 6.5, 30 min, ambient temperature; read-out: IC50, inhibitory potency against stromelysin
pIC50: −log10 of the molar value.
Record rule met whenever pIC50 is at 5 or higher; record rule not met when lower.

Here are 5 molecules together with their reported answers.
>  <molecule>
N#Cc1ccc(-c2ccc(OCCCCCCC(=O)NO)cc2)cc1 [Example 11]

>  <class>
rule met

$$$$
>  <molecule>
COc1ccc(-c2ccc(OCCC(=O)NO)cc2)cc1 [Example 26]

>  <class>
rule met

$$$$
>  <molecule>
N#Cc1ccc(-c2cccc(OCCCCC(=O)NO)c2)cc1 [Example 14]

>  <class>
rule not met

$$$$
>  <molecule>
N#Cc1ccc(-c2cccc(OCCCC(=O)NO)c2)cc1 [Example 16]

>  <class>
rule not met

$$$$
>  <molecule>
O=C(CSc1ccc(-c2ccccc2)cc1)NO [Example 31, 2-(4-biphenylthio)ethanohydroxamic acid]

>  <class>
rule met

$$$$

[ask] Is the recorded value of pIC50 equal to or greater than 5 for this molecule? N#CCc1ccc(-c2ccc(OCCC(=O)NO)cc2)cc1 [Example 44]
[reply] rule met

[ask] Is the recorded value of pIC50 equal to or greater than 5 for this molecule? O=C(CCCCCOc1ccc(-c2ccccc2)cc1)NO [Example 21, 6-[4-phenylphenoxy]hexanohydroxamic acid]
[reply] rule not met

---

Biological target: stromelysin (Homo sapiens)
Assay: Determination of stromelysin inhibition (cleavage of thiopeptide ester substrate, DTNB readout)
Conditions: recombinant truncated human stromelysin, pH 6.5, 30 min, ambient temperature; read-out: IC50, inhibitory potency against stromelysin
Friendly reminder: IC50 below 2 µM is 1 (yes), at or above is 0 (no).

Here are 3 compounds together with their reported answers.
>  <compound>
CC(C)(C)OC(=O)CC(CCOc1ccc(-c2ccc(C#N)cc2)cc1)C(=O)NO (stereo not shown) [Example 43]

>  <class>
1 (yes)

$$$$
>  <compound>
C[C@@H](COc1ccc(-c2ccccc2)cc1)C(=O)NO [Example 28]

>  <class>
1 (yes)

$$$$
>  <compound>
O=C(CCc1ccc(-c2ccccc2)cc1)NO [Example 37, 3-(4-biphenyl)propanohydroxamic acid]

>  <class>
0 (no)

$$$$

// switching to the query compound
[ask] IC50 strictly < 2 µM for this compound? O=C(CCOc1ccc(-c2ccc(F)cc2)cc1)NO [Example 27]
[reply] 1 (yes)

---

Listed here: items and their measured pIC50.
Target: stromelysin (Homo sapiens)
Test: Determination of stromelysin inhibition (cleavage of thiopeptide ester substrate, DTNB readout)
Details: recombinant truncated human stromelysin, pH 6.5, 30 min, ambient temperature; read-out: IC50, inhibitory potency against stromelysin
Entry type: numeric. Quantity: pIC50, the -log10 of concentration in molar units.

[ask] Provide only the value of recorded pIC50 for O=C(CCCCc1ccc(-c2ccccc2)cc1)NO [Example 38, 5-(4-biphenyl)pentanohydroxamic acid]
[reply] 6.00

[ask] Provide only the value of recorded pIC50 for O=C(CCNc1ccc(-c2ccccc2)cc1)NO [Example 32]
[reply] 5.34

---

Target: stromelysin (Homo sapiens, UniProt P08254)
Test: Determination of stromelysin inhibition (cleavage of thiopeptide ester substrate, DTNB readout)
Details: recombinant truncated human stromelysin, pH 6.5, 30 min, ambient temperature; read-out: IC50, inhibitory potency against stromelysin
quantity_measured: log10 of IC50 (log10 of the value in µM)
All values: base-10 log of IC50 in µM.

>  <compound>
O=C(CCCc1ccc(-c2ccccc2)cc1)NO [Example 34, 4-(4-biphenyl)butanohydroxamic acid]

>  <log10 of IC50>
1.76

$$$$
>  <compound>
N#Cc1ccc(-c2ccc(OCCCC(=O)NO)cc2)cc1

>  <log10 of IC50>
0.54

$$$$
>  <compound>
N#CCc1ccc(-c2ccc(OCCCC(=O)NO)cc2)cc1

>  <log10 of IC50>
1.32

$$$$

[ask] Provide only the value of recorded log10 of IC50 for "COc1ccc(-c2ccc(OCCCC(=O)NO)cc2)cc1"
[reply] 1.53

[ask] Provide only the value of recorded log10 of IC50 for "O=C(CCCCOc1cccc(-c2ccccc2)c1)NO"
[reply] 1.87

[ask] Provide only the value of recorded log10 of IC50 for "N#CCc1cccc(-c2ccc(OCCCC(=O)NO)cc2)c1"
[reply] 0.28

[ask] Provide only the value of recorded log10 of IC50 for "O=C(CCCOc1cccc(-c2ccc(F)cc2)c1)NO"
[reply] 1.87

[ask] Provide only the value of recorded log10 of IC50 for O=C(CCSc1ccc(-c2ccccc2)cc1)NO [Example 30, 3-(4-biphenylthio)propanohydroxamic acid]
[reply] 0.32

---

Molecular target: stromelysin (Homo sapiens, UniProt P08254)
Assay: Determination of stromelysin inhibition (cleavage of thiopeptide ester substrate, DTNB readout)
Conditions: recombinant truncated human stromelysin, pH 6.5, 30 min, ambient temperature; read-out: IC50, inhibitory potency against stromelysin
Listed here: items and their measured log10(IC50).
All values: base-10 log of IC50 in µM.

>  <compound>
N#Cc1cccc(-c2ccc(OCCCC(=O)NO)cc2)c1

>  <numeric_value>
1.66

$$$$

[ask] Provide only the value of recorded log10(IC50) for "N#Cc1cccc(-c2cccc(OCCCC(=O)NO)c2)c1"
[reply] 0.40

[ask] Provide only the value of recorded log10(IC50) for "N#CCc1cccc(-c2ccc(OCCC(=O)NO)cc2)c1"
[reply] -1.82

[ask] Provide only the value of recorded log10(IC50) for CNC(=O)C(CCOc1ccc(-c2ccc(C#N)cc2)cc1)CC(=O)NO (centres unmarked)
[reply] -0.46

[ask] Provide only the value of recorded log10(IC50) for O=C(NO)C(O)COc1ccc(-c2ccccc2)cc1 (centres unmarked)
[reply] 0.36

This collection of values is drawn from patent US5665777A.
